These molecules were tested on 5-hydroxytryptamine receptor 1D (Homo sapiens); pKi is the recorded read-out.
Sequence (P28221 whole entry): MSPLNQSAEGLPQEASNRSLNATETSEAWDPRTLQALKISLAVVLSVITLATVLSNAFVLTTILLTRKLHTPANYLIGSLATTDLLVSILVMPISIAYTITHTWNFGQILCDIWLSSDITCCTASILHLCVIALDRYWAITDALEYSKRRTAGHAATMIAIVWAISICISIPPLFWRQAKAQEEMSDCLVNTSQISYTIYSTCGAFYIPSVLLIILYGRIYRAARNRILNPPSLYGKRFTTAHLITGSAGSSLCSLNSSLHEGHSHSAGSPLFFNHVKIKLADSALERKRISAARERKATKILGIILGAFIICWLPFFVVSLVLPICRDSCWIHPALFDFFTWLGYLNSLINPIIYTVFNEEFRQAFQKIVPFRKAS
pKi: −log10 of the molar value.

Reference set (3 entries):
Smiles record: CCCN1CCC(COc2nc3c(OC)cccc3c3ccccc23)CC1
Result: 5.59
//
Smiles record: CCCN1CCC(COc2nc3c(I)cccc3c3ccccc23)CC1
Result: < 5.00
//
Smiles record: Fc1cccc2c1nc(OCC1CCN(CCCc3ccc(I)cc3)CC1)c1cccnc12
Result: < 5.00

Pending molecule:
Which value of pKi has been reported for `CCCN1CCC(COc2nc3ccccc3c3ncccc23)CC1` in the records? < 5.00

* * *

Target entity: UniProt O70528
Sequence (O70528 whole entry): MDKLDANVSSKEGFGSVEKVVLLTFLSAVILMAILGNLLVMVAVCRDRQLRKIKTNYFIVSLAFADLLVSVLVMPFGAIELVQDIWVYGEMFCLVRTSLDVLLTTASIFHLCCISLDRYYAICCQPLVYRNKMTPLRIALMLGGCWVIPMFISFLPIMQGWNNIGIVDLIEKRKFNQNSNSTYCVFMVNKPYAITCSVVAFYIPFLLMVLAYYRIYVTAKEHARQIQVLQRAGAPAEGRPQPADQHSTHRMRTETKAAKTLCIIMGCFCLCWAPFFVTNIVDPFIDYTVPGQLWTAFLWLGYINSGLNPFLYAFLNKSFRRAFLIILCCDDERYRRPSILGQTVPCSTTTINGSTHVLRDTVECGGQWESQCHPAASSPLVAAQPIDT
Measurement notes: Displacement of [3H]GR113808 from 5HT4R in guinea pig striatal membranes at 1 uM
Format: cell membranes
Test parameters: Striatum, Membrane
Items are presented alongside their recorded inhibition.
Lab book: enter the figure in %, no units written.

Sample `CCCN1CCC(COc2nc3ccccc3c3cc(C)ccc23)CC1` — what was its inhibition? 28

* * *

Observed Ki values for 5-hydroxytryptamine receptor 5A (Homo sapiens) are listed in what follows.
Response body: numeric value in µM, unit text excluded.

Smiles record: CCCN1CCC(COc2nc3c(I)cccc3c3ccccc23)CC1
Quantity unit: µM
Ki: 5.81

Record lookup: for 5-hydroxytryptamine receptor 5A (Homo sapiens), what Ki belongs to `Fc1cccc2c1nc(OCC1CCN(CCCc3ccc(I)cc3)CC1)c1cccnc12` ? 1.7

* * *

Entries below carry reported Ki on 5-hydroxytryptamine receptor 2A (Homo sapiens).
Sequence (P28223 whole entry): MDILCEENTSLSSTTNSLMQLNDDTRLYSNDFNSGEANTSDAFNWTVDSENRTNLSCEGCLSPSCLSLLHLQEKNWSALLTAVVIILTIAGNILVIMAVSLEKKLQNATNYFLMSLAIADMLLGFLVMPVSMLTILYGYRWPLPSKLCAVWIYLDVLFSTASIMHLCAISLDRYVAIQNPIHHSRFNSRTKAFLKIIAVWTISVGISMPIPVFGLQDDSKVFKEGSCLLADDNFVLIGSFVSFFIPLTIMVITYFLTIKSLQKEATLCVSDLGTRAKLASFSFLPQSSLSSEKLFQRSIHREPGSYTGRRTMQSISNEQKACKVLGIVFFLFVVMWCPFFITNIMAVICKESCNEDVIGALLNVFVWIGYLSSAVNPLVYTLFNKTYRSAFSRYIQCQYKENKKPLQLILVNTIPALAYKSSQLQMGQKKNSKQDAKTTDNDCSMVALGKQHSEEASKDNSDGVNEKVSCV
The answer is to be given in nM; state only the numeric part.

Smiles record: CCCN1CCC(COc2nc3c(OC)cccc3c3ccccc23)CC1
Quantity unit: nM
Measured number: 5960
//
Smiles record: CCCN1CCC(COc2nc3c(I)cccc3c3ncccc23)CC1
Quantity unit: nM
Measured number: 1820
//
Smiles record: CCCN1CCC(COc2nc3c(I)cccc3c3ccccc23)CC1
Quantity unit: nM
Measured number: 1020

// below: Ki requested for another compound
# input compound: `Fc1cccc2c1nc(OCC1CCN(CCCc3ccc(I)cc3)CC1)c1cccnc12` ; wanted: its Ki 810

* * *

Target entity: 5-hydroxytryptamine receptor 4 (Cavia porcellus)
Measurement notes: Displacement of [3H]GR113808 from 5HT4R in guinea pig striatal membranes at 10 nM
Format: cell membranes
Test parameters: Striatum, Membrane
Property measured: inhibition (%)
// return numeric value only (unit: %, not printed)

Field: example entries. Status: answers known.
Smiles record: CCCN1CCC(COc2nc3ccccc3c3ncccc23)CC1
Property measured: inhibition
Quantity unit: %
Measured number: 64
--
Smiles record: CCCN1CCC(COc2nc3ccccc3c3ccc([N+](=O)[O-])cc23)CC1
Property measured: inhibition
Quantity unit: %
Measured number: 0
--
Smiles record: CCCN1CCC(COc2nc3ccc(F)cc3c3ccccc23)CC1
Property measured: inhibition
Quantity unit: %
Measured number: 0
--
Smiles record: CCCN1CCC(COc2nc3c(C)cccc3c3ccccc23)CC1
Property measured: inhibition
Quantity unit: %
Measured number: 0

Entry `Fc1cccc2c1nc(OCC1CCN(CCCc3ccc(I)cc3)CC1)c1cccnc12` has what inhibition? 94

Queued: `CCCN1CCC(COc2nc3c(Cl)cccc3c3ccccc23)CC1` 24

* * *

Target entity: 5-hydroxytryptamine receptor 4 (Cavia porcellus)
Measurement notes: Displacement of [3H]GR113808 from 5HT4R in guinea pig striatal membranes at 1 uM
Type: cell membranes
Test parameters: Striatum, Membrane
Rule: Met for inhibition not less than 90%, Not met for anything less.

Smiles record: Ic1ccc(CCCN2CCC(COc3nc4ccccc4c4ccccc34)CC2)cc1
Group label: Met

Smiles record: CCCN1CCC(COc2nc3ccccc3c3ccc([N+](=O)[O-])cc23)CC1
Group label: Not met

Smiles record: CCCN1CCC(COc2nc3ccccc3c3ccc(OC)cc23)CC1
Group label: Not met

Smiles record: CCCN1CCC(COc2nc3c(C)cccc3c3ccccc23)CC1
Group label: Met

Smiles record: CCCN1CCC(COc2nc3ccc(F)cc3c3ccccc23)CC1
Group label: Not met

Smiles record: Fc1cccc2c1nc(OCC1CCN(CCCc3ccc(I)cc3)CC1)c1cccnc12
Group label: Met

Does `CCCN1CCC(COc2nc3c(F)cccc3c3ncccc23)CC1` have a reported inhibition of at least 90%? Met

Consider next the compound `CCCN1CCC(COc2nc3ccccc3c3ncccc23)CC1` in the same way. Met

Follow-up item: `CCCN1CCC(COc2nc3c(Cl)cccc3c3ccccc23)CC1` Met

And `CCCN1CCC(COc2nc3ccc(Cl)cc3c3ccccc23)CC1` ? Not met

Value source: ChEMBL document CHEMBL2176996
